These entries and their values trace back to the supplement of paper PMC10567573.

The entries below come with measured protein stability index values attached.
B1: C22orf15 (parent)
chain: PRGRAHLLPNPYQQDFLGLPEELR

- Variants of: B1
- PROTOCOL_DESCRIPTION: protein stability index of a GFP-peptide fusion (GPS, HEK-293T) (PSI 1-6); higher = more stable;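 further: lentivirally expressed fusions sorted by FACS into six bins by GFP to DsRed ratio, PSI derived from sequencing read proportions per bin multiplied by bin number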
- COND: c terminus: a fixed tail appended
Form: value (number only, do not type unit).

For orientation, consider the following solved cases.
{"columns": ["MUTATION_ID", "protein stability index"],
 "data": [
  ["R24G", 3.8],
  ["E22I", 2.59],
  ["P9S", 3.88],
  ["F16L", 4.23],
  ["Q14I", 3.19]
]}

Return reported protein stability index; argument: R2T
4.22

Return reported protein stability index; argument: R2Q
4.24

Return reported protein stability index; argument: A5D
4.25

Return reported protein stability index; argument: Y12T
4.44

Return reported protein stability index; argument: L8V
4.02

Return reported protein stability index; argument: L23N
4.01
